Molecular target: U2AF65 UHM (Homo sapiens)
Construct: three different UHM domains of SPF45, PUF60 and U2AF65; made in house
Assay: AlphaScreen competition assay, U2AF65
Assay type: binding
Details: Table 1; errors = standard errors of fitting
Protocol: AlphaScreen assay was carried out using streptavidin donor beads to bind biotinylated peptide and Ni^2+ acceptor beads to bind His-tagged protein. The assays were carried out by incubating 10 nM protein with 10 nM biotinylated peptide (biotinylated-RKSRWDETP) in 20 mM Potassium phosphate, 150 mM NaCl, 0.5% bovine serum albumin, 0.05% NP40 detergent, 1 mM BME and 1% DMSO for 30 min. […]
pIC50: −log10 of the molar value.
Property Label: pIC50

INSERT INTO measurements (compound, number) VALUES
  ('COc1cc2c(cc1OC)N(CCCN1CCN(CCO)CC1)c1cc(Cl)ccc1S2 [Cmp7, 7,8-dimethoxyperphenazine]', 4.92),
  ('C=CCCOc1cc2c(cc1OC)N(CCCN1CCN(CCO)CC1)c1cc(Cl)ccc1S2 [Cmp9]', 5.15),
  ('COc1ccc2c(c1)Sc1ccc(Cl)cc1N2CCCN1CCN(CCO)CC1 [Cmp6]', 4.34),
  ('Clc1ccc2c(c1)N(CCCn1ccnc1)c1ccccc1S2 [Cmp4]', 4.31),
  ('COc1ccc(N(CCCN2CCN(CCO)CC2)c2cccc(Cl)c2)cc1OC [Cmp1]', 3.52);

Ref: paper PMC7648758
